Record: compiled pIC50 on Human Factor XIIa (Homo sapiens, UniProt P00748) from multiple reports.
pIC50: −log10 of the molar value.
Value kind: pIC50

{"columns": ["Compound", "Result"],
 "data": [
  ["CCN1CCc2cc(F)c(N3CCc4c(C(=O)NCc5cc(C6CC6)n[nH]5)nn(-c5cccc(Cl)c5)c4C3=O)cc2C1", "7.00 to 8.00"],
  ["O=C(NCC1CC1)c1nn(-c2cccc(Cl)c2)c2c1CCN(c1ccc3c(c1)CN(C(=O)CO)CC3)C2=O", "5.00 to 5.52"],
  ["CN1CCC(COc2cc(CNc3cnc4[nH]cc(Cl)c4c3)ccn2)CC1", "4.40 to 5.00"],
  ["Cc1cc(CNC(=O)c2nn(-c3cccc(Cl)c3)c3c2CCN(c2ccc4c(c2)C(=O)N(CC2CCOC2)CC4)C3=O)nn1C (stereo not shown)", "6.52 to 7.00"],
  ["CC(C)N1CC2CCC(C1)C2COc1cc(CNc2cccc3c(N)nccc23)ccn1 (stereo not shown)", "6.52 to 7.00"],
  ["Nc1ncc(Cl)c2cc(NCc3ccnc(N4CCn5ccnc5C4)c3)ccc12", "6.52 to 7.00"],
  ["Nc1nccc2c(NCC34CN(C(=O)OCc5ccccc5)C(C(=O)N5CCn6c(nnc6C(F)(F)F)C5)(C3)C4)cccc12", "4.40 to 5.00"],
  ["CN1CCC(CCn2cc(CNc3cccc4c(N)nccc34)cn2)CC1", "6.00 to 6.52"],
  ["CN1CCC(COc2cc(CNc3ccc4c(N)nccc4c3)ccn2)CC1=O (stereo not shown)", "6.00 to 6.52"],
  ["O=C(NCC1CC1)c1nn(-c2cccc(Cl)c2)c2c1CCN(c1cccc(N3CCCCC3=O)c1)C2=O", "5.52 to 6.00"],
  ["O=C(NCc1ccncc1F)c1nn(-c2cccc(Cl)c2)c2c1CCN(c1ccc3c(c1)CN(CCO)CC3)C2=O", "7.00 to 8.00"],
  ["Cn1ccnc1COc1cc(CNc2cccc3c(N)nccc23)ccn1", "5.00 to 5.52"],
  ["Cn1ccc(OCC23CN(C(=O)NCc4cccc(C(F)(F)F)c4)C(CNc4cccc5c(N)nccc45)(C2)C3)cc1=O", "7.00 to 8.00"],
  ["Nc1ncc(Cl)c2cc(NCc3ccc(N4CCn5ncc(O)c5C4)nc3)ccc12", "5.00 to 5.52"],
  ["CN1CCc2ccc(N3CCc4c(C(=O)N[C@H](CO)C5CC5)nn(-c5cccc(Cl)c5)c4C3=O)cc2C1=O", "6.52 to 7.00"],
  ["Nc1ncc(Cl)c2cc(NCc3ccnc(NCCC(=O)N4CCCC4)c3)ccc12", "5.52 to 6.00"],
  ["Cc1ccc(CNC(=O)c2nn(-c3cccc(Cl)c3)c3c2CCN(c2ccc4c(c2)C(=O)N(CCO)CC4)C3=O)cn1", "6.52 to 7.00"],
  ["CN1CCc2ccc(N3CCc4c(C(=O)NCC5CC5)nn(-c5cc(Cl)cc(CN)c5)c4C3=O)cc2C1=O", "7.00 to 8.00"],
  ["CN1CCC(NC(=O)c2cc(CNc3cccc4c(N)nccc34)ccn2)CC1", "6.00 to 6.52"],
  ["Cn1ccc(OCC23CC(CNc4cccc5c(N)nccc45)(CN2)C3)cc1=O", "6.52 to 7.00"],
  ["Cn1ccc(OCC23CC(CNc4cccc5c(N)nccc45)(CN2c2nc4ccccc4o2)C3)cc1=O", "6.00 to 6.52"],
  ["CC(C)N1C[C@H]2C[C@@H]1CN2Cc1cc(CNc2cccc3c(N)nccc23)ccn1", "4.40 to 5.00"],
  ["Cc1cc2c(NCc3ccc(OCC4CCN(C)CC4)nc3)ccnc2[nH]1", "6.00 to 6.52"],
  ["CC(C)(O)C1CN(c2ccc(CNc3cccc4c(N)nccc34)cn2)Cc2nccn21 (stereo not shown)", "5.00 to 5.52"],
  ["Cc1n[nH]c2c1CCC2Nc1ccc(CNc2cccc3c(N)nccc23)cn1 (stereo not shown)", "4.40 to 5.00"],
  ["Nc1nccc2c(NCC34CC(COC5CCn6ccnc6C5)(C3)C4)cccc12 (single isomer, unassigned)", "6.52 to 7.00"],
  ["CN1CCc2ccc(N3CCc4c(CO)nn(-c5cccc(Cl)c5)c4C3=O)cc2C1=O", "5.52 to 6.00"],
  ["Nc1nccc2c(NCc3ccc(N4CCn5c(nnc5C(F)(F)F)C4)cn3)cccc12", "6.52 to 7.00"],
  ["CN(CCO)C(=O)c1cccc(N2CCc3c(C(=O)NCC4CC4)nn(-c4cccc(Cl)c4)c3C2=O)c1", "5.00 to 5.52"],
  ["Cc1cnc2ccc(OCC34CC(CNc5cccc6c(N)nccc56)(CO3)C4)cn12", "7.00 to 8.00"],
  ["Cc1cc(N2CCn3c(nnc3C(F)(F)F)C2C)cnc1CNc1cccc2c(N)nccc12 (stereo not shown)", "7.00 to 8.00"]
]}

----------
Record: compiled IC50 on Human Factor XIIa (Homo sapiens) from multiple reports.

{"columns": ["Compound", "IC50"],
 "data": [
  ["Cc1cnnc(CNC(=O)c2nn(-c3cccc(Cl)c3)c3c2CCN(c2ccc4c(c2)C(=O)N(C)CC4)C3=O)c1", "300 to 1000 nM"],
  ["CC(C)N1CCC(OCc2ccc(CNc3ccc4c(N)nccc4c3)c(F)c2)CC1", "100 to 300 nM"],
  ["CN1CCOc2ccc(N3CCc4c(C(=O)N[C@@H](CO)C5CC5)nn(-c5cccc(Cl)c5F)c4C3=O)cc2C1=O", "10 to 100 nM"],
  ["CCNC(=O)c1nn(-c2ccc(C)cc2F)c2c1CCN(c1ccc3c(c1)C(=O)N(C)CC3)C2=O", "10000 to 40000 nM"],
  ["CN1Cc2ccc(OCC34COC(CNc5cccc6c(N)nccc56)(C3)C4)cc2C1=O", "100 to 300 nM"],
  ["Nc1nccc2cc(NCc3ccnc(OCC4CCn5cc(C(F)(F)F)nc5C4)c3)ccc12 (centres unmarked)", "1000 to 3000 nM"],
  ["Nc1nccc2c(NCC34CC(COc5cc(Cl)c6nccn6c5)(CCO3)C4)cccc12", "100 to 300 nM"],
  ["CN1CCC(COc2ccc(CNc3ccc4c(N)nccc4c3)cn2)CC1", "100 to 300 nM"]
]}

----------
Record: compiled IC50 on UniProt P00748 from multiple reports.
Value kind: IC50

{"columns": ["Compound", "Value kind", "Result"],
 "data": [
  ["CN1CCc2ccc(N3CCc4c(C(=O)N5CCOCC5)nn(-c5cccc(Cl)c5)c4C3=O)cc2C1", "IC50", "1000 to 3000 nM"],
  ["CN1CCC(OCc2ccc(CNc3ccc4cnc(N)cc4c3)cc2)CC1", "IC50", "10000 to 40000 nM"],
  ["CN1CCC(CNc2cc(CNc3cccc4c(N)nccc34)ccn2)CC1", "IC50", "300 to 1000 nM"],
  ["CN1CCCc2ccc(N3CCc4c(C(=O)NCc5ccccc5)nn(-c5cccc(Cl)c5)c4C3=O)cc2C1", "IC50", "100 to 300 nM"],
  ["CN1CCC(CNc2ccc(CNc3ccnc4[nH]c(Cl)cc34)cn2)CC1", "IC50", "10 to 100 nM"],
  ["CN1CCc2ccc(N3CCc4c(C(=O)N[C@@H](CO)C5CC5)nn(-c5cccc(Cl)c5F)c4C3=O)cc2C1=O", "IC50", "10 to 100 nM"],
  ["CN1CCc2ccc(N3CCc4c(C(=O)NC[C@H]5C[C@H](O)C5)nn(-c5cccc(Cl)c5)c4C3=O)cc2C1=O", "IC50", "300 to 1000 nM"],
  ["CCNC(=O)c1nn(-c2cccc(Cl)c2)c2c1CCN(c1cccc(N3CCN(C)C(=O)C3)c1)C2=O", "IC50", "1000 to 3000 nM"],
  ["Nc1nccc2c(NCc3cnc(OCC4CCn5ccnc5C4)nc3)cccc12 (stereo not shown)", "IC50", "100 to 300 nM"],
  ["Cc1ccncc1CNC(=O)c1nn(-c2cccc(Cl)c2)c2c1CCN(c1ccc3c(c1)C(=O)N(CCO)CC3)C2=O", "IC50", "10 to 100 nM"],
  ["COCCN1CCc2ccc(N3CCc4c(C(=O)NCC5CC5)nn(-c5cccc(Cl)c5)c4C3=O)cc2C1=O", "IC50", "300 to 1000 nM"],
  ["Cc1ccncc1CNC(=O)c1nn(-c2cccc(C(F)(F)F)c2)c2c1CCN(c1ccc3c(c1)CN(CCO)CC3)C2=O", "IC50", "100 to 300 nM"],
  ["Nc1nccc2c(OCC34CC(COc5ccn6ccnc6c5)(C3)C4)cccc12", "IC50", "300 to 1000 nM"],
  ["CN(C)C(=O)c1ccnc(N2CCc3c(C(=O)NCC4CC4)nn(-c4cccc(Cl)c4)c3C2=O)c1", "IC50", "3000 to 10000 nM"],
  ["Nc1nccc2c(NCC34CC(COc5cc6nccn6cn5)(CO3)C4)cccc12", "IC50", "3000 to 10000 nM"],
  ["Cc1nnc2n1CCN(c1ccc(CNc3cccc4c(N)nccc34)cn1)CC2", "IC50", "1000 to 3000 nM"]
]}
